B1: Glucocorticoid receptor, residues 419 to 494; numbered along this chain, P04150 (parent)
chain: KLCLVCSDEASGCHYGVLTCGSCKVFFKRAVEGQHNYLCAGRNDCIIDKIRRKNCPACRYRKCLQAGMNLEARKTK

Variants of: B1
experimental.details: abundance fitness (aPCA) (normalised: wild type 0, dead -1); higher = more abundant; growth selection in yeast, the domain comes from the species named
reported.conditions: Homo sapiens
property.name: abundance fitness
Give bare numbers.

[[record]]
mutant_label = "L18R"
number = -0.036


Hi there! I need abundance fitness for each item below, if you can.
1. F27S
2. Q65P
3. L70Q
4. N43P

-0.681
-0.567
-0.02
-0.575

Hi team, please reply with abundance fitness for each item in this list.
1. C45W
2. V5M
3. L70W
4. G12L
5. E9S
6. S11E
7. Y60P

-0.932
-0.681
-0.033
-0.166
0.032
0.054
-0.724
